In this section we review reported viability, T/C values for a set of compounds.
System: PDC 899932-113-R3-J6 complex spheroid viability
Assay: Anticancer human tumor 899932-113-R3-J6-PDC patient-derived melanoma cell line growth inhibition [RAS]
Settings: second compound 0.003 µM; first compound 0.1 µM; hits give low values

| compound | unitsSymbol | viability, T/C |
| --- | --- | --- |
| NC1c2ccccc2OC12CCN(c1cnc3c(N4CCCc5ncccc54)n[nH]c3n1)CC2 (configuration not stated) + CCn1c(-c2cc(N3CCN(C)CC3)cnc2C(C)OC)c2c3cc(ccc31)-c1csc(n1)CC(NC(=O)C1CC1C)C(=O)N1CCCC(N1)C(=O)OCC(C)(C)C2 | % | 27.1 |
| CC(Nc1ccc2c(c1)OCCn1cc(N3C(=O)OCC3C(F)F)nc1-2)C(N)=O (configuration not stated) + CCn1c(-c2cc(N3CCN(C)CC3)cnc2C(C)OC)c2c3cc(ccc31)-c1csc(n1)CC(NC(=O)C1CC1C)C(=O)N1CCCC(N1)C(=O)OCC(C)(C)C2 | % | 19.6 |

----------
Test system: PDC 899932-113-R3-J6 complex spheroid viability
Assay: Anticancer human tumor 899932-113-R3-J6-PDC cell line growth inhibition [RAS];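 further: spheroids exposed to agents for seven days before readout; 100% = DMSO vehicle control wells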
Details: second compound 0.1 µM; first compound 0.00316 µM; hits give low values
Overview of recorded viability, T/C for various compounds
endpointName: viability, T/C (%)

| compound | measuredNumber |
| --- | --- |
| CC(C)n1nc(-c2ccc3oc(N)nc3c2)c2c(N)ncnc21 + C=CC(=O)N1CCN(c2nc(OCC3CCCN3C)nc3c(F)c(-c4nc(N)cc(C)c4C(F)(F)F)c(Cl)cc23)C(C)C1 | 106 |
| CCN1CCN(Cc2ccc(Nc3ncc(F)c(-c4cc(F)c5nc(C)n(C(C)C)c5c4)n3)nc2)CC1 + C#Cc1c(F)ccc2cc(O)cc(-c3ncc4c(N5CC6CCC(C5)N6)nc(OCC56CCCN5CC(F)C6)nc4c3F)c12 | 109 |
| CCN1CCN(Cc2ccc(Nc3ncc(F)c(-c4cc(F)c5nc(C)n(C(C)C)c5c4)n3)nc2)CC1 + C=CC(=O)N1CCN(c2nc(OCC3CCCN3C)nc3c(F)c(-c4nc(N)cc(C)c4C(F)(F)F)c(Cl)cc23)C(C)C1 | 109 |
| C=CC(=O)Nc1cc(Nc2nccc(-c3cn(C)c4ccccc34)n2)c(OC)cc1N(C)CCN(C)C + C=CC(=O)N1CCN(c2nc(OCC3CCCN3C)nc3c(F)c(-c4nc(N)cc(C)c4C(F)(F)F)c(Cl)cc23)C(C)C1 | 110 |
| O=C(c1ccc(F)c(F)c1Nc1ccc(I)cc1F)N1CC(O)([C@@H]2CCCCN2)C1 + C=CC(=O)N1CCN(c2nc(OCC3CCCN3C)nc3c(F)c(-c4nc(N)cc(C)c4C(F)(F)F)c(Cl)cc23)C(C)C1 | 73.9 |
| Nc1ccn(C2OC(CO)C(O)C2(F)F)c(=O)n1 (stereo unspecified) + C=CC(=O)N1CCN(c2nc(OCC3CCCN3C)nc3c(F)c(-c4nc(N)cc(C)c4C(F)(F)F)c(Cl)cc23)C(C)C1 | 106 |
| O=C(c1ccc(F)c(F)c1Nc1ccc(I)cc1F)N1CC(O)([C@@H]2CCCCN2)C1 + C#Cc1c(F)ccc2cc(O)cc(-c3ncc4c(N5CC6CCC(C5)N6)nc(OCC56CCCN5CC(F)C6)nc4c3F)c12 | 70.8 |
| CC(C)n1nc(-c2ccc3oc(N)nc3c2)c2c(N)ncnc21 + C#Cc1c(F)ccc2cc(O)cc(-c3ncc4c(N5CC6CCC(C5)N6)nc(OCC56CCCN5CC(F)C6)nc4c3F)c12 | 95.7 |
| Nc1ccn(C2OC(CO)C(O)C2(F)F)c(=O)n1 (stereo unspecified) + C#Cc1c(F)ccc2cc(O)cc(-c3ncc4c(N5CC6CCC(C5)N6)nc(OCC56CCCN5CC(F)C6)nc4c3F)c12 | 95 |
| C=CC(=O)Nc1cc(Nc2nccc(-c3cn(C)c4ccccc34)n2)c(OC)cc1N(C)CCN(C)C + C#Cc1c(F)ccc2cc(O)cc(-c3ncc4c(N5CC6CCC(C5)N6)nc(OCC56CCCN5CC(F)C6)nc4c3F)c12 | 103 |
| C=CC(=O)N1CCN(c2nc(OCC3CCCN3C)nc3c(F)c(-c4nc(N)cc(C)c4C(F)(F)F)c(Cl)cc23)C(C)C1 (stereo unspecified) + C#Cc1c(F)ccc2cc(O)cc(-c3ncc4c(N5CC6CCC(C5)N6)nc(OCC56CCCN5CC(F)C6)nc4c3F)c12 | 112 |
